pIC50: −log10 of the molar value.
Quick record of pIC50 values for Cyclin-dependent kinase 2 (Homo sapiens, UniProt P24941).

{"Compound": "NS(=O)(=O)c1ccc(NN=C2C(=O)Nc3cc(Oc4ccccc4)ccc32)cc1", "Operator symbol": "<", "pIC50": 5.00}
{"Compound": "CC(=O)NS(=O)(=O)c1ccc(N/C=C2\\C(=O)Nc3ccc4ncsc4c32)cc1", "Operator symbol": "=", "pIC50": 7.12}
{"Compound": "CC(C)c1ccc2c(c1)NC(=O)/C2=N/Nc1ccc(S(N)(=O)=O)cc1 [GW300653X]", "Operator symbol": "=", "pIC50": 7.12}
{"Compound": "C/C(Nc1ccc(S(N)(=O)=O)cc1)=C1/C(=O)Nc2ccc(Cl)cc21", "Operator symbol": "=", "pIC50": 7.66}
{"Compound": "CC(C)CC(=O)c1ccc2c(c1)/C(=C/Nc1ccc(S(N)(=O)=O)cc1)C(=O)N2", "Operator symbol": "=", "pIC50": 8.72}
{"Compound": "NS(=O)(=O)c1ccc(N/C=C2\\C(=O)Nc3ccccc32)cc1", "Operator symbol": "=", "pIC50": 6.16}
{"Compound": "Nc1ccc2c(c1)C(=NNc1ccc(S(N)(=O)=O)cc1)C(=O)N2", "Operator symbol": "=", "pIC50": 7.13}
{"Compound": "NS(=O)(=O)c1ccc(NN=C2C(=O)Nc3cccc(Oc4ccccc4)c32)cc1", "Operator symbol": "=", "pIC50": 7.89}
{"Compound": "Cc1cc(C)c2c(c1)/C(=C/Nc1ccc(S(N)(=O)=O)cc1)C(=O)N2", "Operator symbol": "<", "pIC50": 5.00}
{"Compound": "O=C1Nc2ccc3ncsc3c2/C1=C/Nc1ccc(S(=O)(=O)NCc2ccccc2)cc1", "Operator symbol": "=", "pIC50": 8.25}
{"Compound": "NS(=O)(=O)c1ccc(N/N=C2\\C(=O)Nc3ccc(-c4cnco4)cc32)cc1 [GW276655X]", "Operator symbol": "=", "pIC50": 8.64}

Cited source: ChEMBL document CHEMBL1134300
